molecular target: ZFP SBS#424 (synthetic); test: EMSA; settings: tags: MBP fusion
Sequence (chain, as listed by the source): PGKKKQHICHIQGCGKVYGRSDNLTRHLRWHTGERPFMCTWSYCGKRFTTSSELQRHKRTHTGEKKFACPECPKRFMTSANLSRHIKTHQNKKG
observation_type: pKd
// pKd is dimensionless: -log10 of concentration (M)

Q) Name the reported pKd value associated with the binder GATGCTGAG (dsDNA) DNA 1: GATGCTGAG DNA 2: CTCAGCATC
A) 7.00
